Cited source: the supplement of paper PMC10567573

B1: EHMT1 (parent)
chain: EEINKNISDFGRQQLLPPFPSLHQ

Variants of: B1
Experiment Summary: protein stability index of a GFP-peptide fusion (GPS, HEK-293T) (PSI 1-6); higher = more stable;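 also: lentivirally expressed fusions sorted by FACS into six bins by GFP to DsRed ratio, PSI derived from sequencing read proportions per bin multiplied by bin number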
Reported Conditions: c terminus: a fixed tail appended
Lab note: anything with protein stability index at or over 3 counts as TRUE; the rest go in FALSE.

These recorded examples may help you get a feel for the data.
{"Variant Designation": "P18Q", "Cat": "TRUE"}
{"Variant Designation": "Q13N", "Cat": "FALSE"}
{"Variant Designation": "E1L", "Cat": "FALSE"}
{"Variant Designation": "G11V", "Cat": "FALSE"}
{"Variant Designation": "K5Q", "Cat": "TRUE"}

For this variant, is measured protein stability index 3 or higher? `S8G`
FALSE

For this variant, is measured protein stability index 3 or higher? `G11H`
FALSE
